# Read-out: Vascular cell adhesion molecule 1 (VCAM1), VCAM1 (gene 7412)
# protocol description: BSK_4H_VCAM1: BioMAP Diversity Plus: 4H Assay for Vascular cell adhesion molecule 1 (VCAM1) Biomarker Activity (AID 2283033);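 on outcome: cell-surface VCAM-1 protein measured by ELISA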
# condition notes: primary human endothelial cells (HUVEC); actives raise or lower the signal
Active and inactive are the calls of the source. How the source made its calls: active means hit-call score of the fitted dose curve at least 0.9, where 1 is the maximum; inactive means score below 0.9.
Reply using exactly one outcome from T = active, F = inactive

Study these solved cases before continuing.
O=[N+]([O-])c1ccc(O)cc1
F
OCCC(F)(F)C(F)(F)C(F)(F)C(F)(F)C(F)(F)C(F)(F)F
F
CCCCC(CC)COC(=O)CCCCC(=O)OCC(CC)CCCC (stereo not drawn)
F
COCC(C)O (stereo not drawn)
F
CCCCOCCO
F
O=C(O)c1ccccc1C(c1ccc(O)cc1)c1ccc(O)cc1
F
CN1CCC[C@H]1c1cccnc1
F
CN1CCN(c2ccccc2/C=C2\SCCN(c3ccc(Cl)c(Cl)c3)C2=O)CC1
F
CC(=O)NC1(c2cccc(F)c2)CCN(CC[C@@]2(c3ccc(Cl)c(Cl)c3)CN(c3ccccc3)C(=O)CO2)CC1
T
c1ccc2c(c1)Cc1ccccc1-2
F

Called result for CC[C@H](c1ccc(O)cc1)[C@@H](CC)c1ccc(O)cc1
T

# lookup: test call for CCCCCCCCCCCCCC[N+](C)(C)C
T

Tell me the recorded outcome of this test for CC(O)CO (stereo not drawn) .
F

---

# Read-out: Bcl-2 (BID) gene, BID (gene 637)
# protocol description: LTEA_HepaRG_BID: Life Technologies and Expression Analysis (LTEA) Assay for Bcl-2 (BID) gene using HepaRG (AID 2283476)
# condition notes: mRNA level, 48 h; actives raise or lower the signal
Active and inactive are the calls of the source. The calls were made as follows: active = hit-call score of the fitted dose curve at least 0.9, where 1 is the maximum; inactive = score below 0.9.
Give your call using only these classes: 1 (yes) (active), 0 (no) (inactive)

# example entries with known answers
O=C(OCCOCCOC(=O)c1ccccc1)c1ccccc1
0 (no)
CCCCCCCCOC(=O)CCCCCCCCC(=O)OCCCCCCCC
0 (no)
CCCOC(=O)c1ccc(O)cc1
0 (no)
Cc1cc(C)c(O)c(C)c1
0 (no)
CC(C)CCCCCCOC(=O)CCCCC(=O)OCCCCCCC(C)C
0 (no)

Please let me know the test result on file for CC(O)CO (stereo not given) .
0 (no)

Can you look up the reported call for CN(C)C=O for me?
0 (no)

Each compound tested received a call. Report the one for CC(C)(C)c1ccc(O)c(C(C)(C)C)c1 .
0 (no)

Per the records of this test, what outcome belongs to CCCCC(CC)COC(=O)CCCCC(=O)OCc1ccccc1 (stereo not given) ?
0 (no)

Test call for this compound, please: CN1CCC[C@H]1c1cccnc1
0 (no)

Please let me know the test result on file for CCCCOCCO .
0 (no)

For N#C[C@@H]1CC(F)(F)CN1C(=O)CNC1CC2CCC(C1)N2c1ncccn1 (stereo not given in full) , what call appears in the results of this test?
0 (no)

Field: outcome | Entry: C#C[C@]1(O)CC[C@H]2[C@@H]3CCC4=CC(=O)CC[C@@H]4[C@H]3CC[C@@]21C
0 (no)

Write down the call the test reported for this compound. Item: c1ccc2cc3c(ccc4ccccc43)cc2c1
0 (no)

Which outcome was entered for the compound CC1=C(/C=C/C(C)=C/C=C/C(C)=C/C(=O)O)C(C)(C)CCC1 in this test?
0 (no)

Look up the recorded call for CCc1nn(C2CCCCC2)c2cc(C3(C#N)CCC(C(=O)O)CC3)ccc12 (stereo not given) in this test.
0 (no)

# outcome recorded in this test, key = CC[C@H](C)[C@@H](C(=O)O)n1sc2ccccc2c1=O
0 (no)

Could you check what this test reported for CCC(C)(C)C1CCC(O)CC1 (stereo not given) ?
0 (no)

Please let me know the test result on file for COCC(C)OCC(C)O (stereo not given) .
0 (no)

This collection of values is drawn from PubChem BioAssay (EPA / NIEHS).
